B1: library; numbered along this chain (parent)
chain: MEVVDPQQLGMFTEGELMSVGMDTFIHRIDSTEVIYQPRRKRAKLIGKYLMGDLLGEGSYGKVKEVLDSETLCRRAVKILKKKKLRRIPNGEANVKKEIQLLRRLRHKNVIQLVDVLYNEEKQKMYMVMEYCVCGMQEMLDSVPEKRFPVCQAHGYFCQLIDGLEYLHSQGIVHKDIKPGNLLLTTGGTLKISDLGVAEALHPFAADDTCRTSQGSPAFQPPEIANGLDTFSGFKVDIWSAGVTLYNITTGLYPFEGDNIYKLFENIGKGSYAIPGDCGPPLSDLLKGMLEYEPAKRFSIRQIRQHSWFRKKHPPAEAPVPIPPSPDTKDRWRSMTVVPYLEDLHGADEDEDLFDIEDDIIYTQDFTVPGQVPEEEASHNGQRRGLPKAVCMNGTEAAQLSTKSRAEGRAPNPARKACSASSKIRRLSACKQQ

variants of: B1; experiment: STK11 functional score (HeLa growth suppression), rescaled enrichment; synonymous median = 1, nonsense median = 0 (normalised score); conditions: with HeLa; variant type: missense
Value kind: STK11 functional score
Give the figure only, with no unit attached.

Here is how some variants turned out for STK11 functional score.
Variant description | Reported
L341A | 1.51
M335H | -0.482
L245F | 0.00828

Could you now consider this next variant?
Using the record for G180N , report its STK11 functional score.
1.39

Reference for the values: the supplement of paper PMC12338614
